Assay: Selectivity index, ratio of HC50 against rabbit RBC for to MIC for Escherichia coli ATCC25922
Assay type: toxicity
Conditions: rabbit red blood cells, pooled result: one value given for 6 cell lines, strains, targets or settings, read-out: Selectivity Index

molecule	selectivity ratio
CCCCCCCNC(=O)C[N+](C)(C)CCCCOc1cc(C)ccc1C(C)C.[Br-]	59

###

Tested on: Pseudomonas aeruginosa
Assay: Antibacterial activity against Pseudomonas aeruginosa ATCC27853 by CLSI based serial dilution method
Assay type: functional
Listing of recorded MIC by entry.

molecule	MIC
Cc1ccc(C(C)C)c(OCCC[N+](C)(C)CC(=O)N2CCSCC2)c1.[Br-]	> 128 µg/mL
Cc1ccc(C(C)C)cc1OCCCCC[N+](C)(C)CC(=O)N(C(C)C)C(C)C.[Br-]	> 128 µg/mL
CCCCNC(=O)C[N+](C)(C)CCCCOc1cc(C)ccc1C(C)C.[Br-]	> 128 µg/mL
CCCN(CCC)C(=O)C[N+](C)(C)CCCOc1cc(C)ccc1C(C)C.[Br-]	> 128 µg/mL
CC1(C)S[C@@H]2[C@H](NC(=O)[C@H](N)c3ccccc3)C(=O)N2[C@H]1C(=O)O	> 128 µg/mL
CCCCCCNC(=O)C[N+](C)(C)CCCCOc1cc(C(C)C)ccc1C.[Br-]	32 µg/mL
Cc1ccc(C(C)C)c(OCCCCC[N+](C)(C)CC(=O)N2CCSCC2)c1.[Br-]	> 128 µg/mL
CN[C@H](CC(C)C)C(=O)N[C@H]1C(=O)N[C@@H](CC(N)=O)C(=O)N[C@H]2C(=O)N[C@H]3C(=O)N[C@H](C(=O)N[C@H](C(=O)O)c4cc(O)cc(O)c4-c4cc3ccc4O)[C@H](O)c3ccc(c(Cl)c3)Oc3cc2cc(c3O[C@@H]2O[C@H](CO)[C@@H](O)[C@H](O)[C@H]2O[C@H]2C[C@](C)(N)[C@H](O)[C@H](C)O2)Oc2ccc(cc2Cl)[C@H]1O	> 128 µg/mL
Cc1ccc(C(C)C)c(OCCCC[N+](C)(C)CC(=O)N(C(C)C)C(C)C)c1.[Br-]	> 128 µg/mL
CCCCN(CCCC)C(=O)C[N+](C)(C)CCCOc1cc(C)ccc1C(C)C.[Br-]	> 128 µg/mL
CCCCNC(=O)C[N+](C)(C)CCCCOc1cc(C(C)C)ccc1C.[Br-]	> 128 µg/mL
CCCCCCCNC(=O)C[N+](C)(C)CCCCCOc1cc(C)ccc1C(C)C.[Br-]	32 µg/mL
CCCCCCCNC(=O)C[N+](C)(C)CCCOc1cc(C(C)C)ccc1C.[Br-]	16 µg/mL
Cc1ccc(C(C)C)cc1OCCCCC[N+](C)(C)CC(=O)N(CC(C)C)CC(C)C.[Br-]	64 µg/mL
CCCCCCN(CCCCCC)C(=O)C[N+](C)(C)CCCCOc1cc(C)ccc1C(C)C.[Br-]	> 128 µg/mL
CCCCCCN(CCCCCC)C(=O)C[N+](C)(C)CCCCOc1cc(C(C)C)ccc1C.[Br-]	8 µg/mL
Cc1ccc(C(C)C)c(OCCCC[N+](C)(C)CC(=O)N(CC(C)C)CC(C)C)c1.[Br-]	> 128 µg/mL
Cc1ccc(C(C)C)c(OCCCCC[N+](C)(C)CC(=O)N2CCOCC2)c1.[Br-]	> 128 µg/mL
CCCNC(=O)C[N+](C)(C)CCCCCOc1cc(C(C)C)ccc1C.[Br-]	> 128 µg/mL
CCCCCCCNC(=O)C[N+](C)(C)CCCCOc1cc(C(C)C)ccc1C.[Br-]	16 µg/mL
Cc1ccc(C(C)C)cc1OCCCC[N+](C)(C)CC(=O)N1CCOCC1.[Br-]	> 128 µg/mL
CCCNC(=O)C[N+](C)(C)CCCCOc1cc(C(C)C)ccc1C.[Br-]	> 128 µg/mL
CCCCCCCNC(=O)C[N+](C)(C)CCCCOc1cc(C)ccc1C(C)C.[Br-]	8 µg/mL
CCCCNC(=O)C[N+](C)(C)CCCCCOc1cc(C(C)C)ccc1C.[Br-]	> 128 µg/mL
CCCCCNC(=O)C[N+](C)(C)CCCCCOc1cc(C(C)C)ccc1C.[Br-]	64 µg/mL
CCCCCCN(CCCCCC)C(=O)C[N+](C)(C)CCCOc1cc(C(C)C)ccc1C.[Br-]	16 µg/mL
Cc1ccc(C(C)C)c(OCCCC[N+](C)(C)CC(=O)N2CCSCC2)c1.[Br-]	> 128 µg/mL
CCCN(CCC)C(=O)C[N+](C)(C)CCCCCOc1cc(C(C)C)ccc1C.[Br-]	> 128 µg/mL
CCCCCCNC(=O)C[N+](C)(C)CCCCCOc1cc(C)ccc1C(C)C.[Br-]	32 µg/mL
CCCCNC(=O)C[N+](C)(C)CCCOc1cc(C)ccc1C(C)C.[Br-]	> 128 µg/mL
CCCNC(=O)C[N+](C)(C)CCCCCOc1cc(C)ccc1C(C)C.[Br-]	> 128 µg/mL
Cc1ccc(C(C)C)cc1OCCCCC[N+](C)(C)CC(=O)N1CCOCC1.[Br-]	> 128 µg/mL
CCCCCCNC(=O)C[N+](C)(C)CCCOc1cc(C)ccc1C(C)C.[Br-]	32 µg/mL
Cc1ccc(C(C)C)cc1OCCCC[N+](C)(C)CC(=O)N1CCSCC1.[Br-]	> 128 µg/mL
Cc1ccc(C(C)C)cc1OCCCC[N+](C)(C)CC(=O)N(CC(C)C)CC(C)C.[Br-]	> 128 µg/mL
Cc1ccc(C(C)C)c(O)c1	> 128 µg/mL
